test system: Influenza B virus; assay: Antiviral activity against Influenza B virus jifang/13/97 infected in MDCK cells assessed as inhibition of plaque formation after 3 to 4 days by crystal violet staining-based assay; type: functional, organism-based; details: jifang/13/97, MDCK
Listing of entries alongside the reported IC50.
metric: IC50

{"compound": "C=C(C(=O)NCc1cn(Cc2ccc(F)cc2)nn1)[C@@H]1CC[C@H](C)[C@@H]2CC(=O)C(C)=C2C1", "measured_result": "0.73 µg/mL"}
{"compound": "C=C(C(=O)NCc1cn(Cc2ccccc2Cl)nn1)[C@@H]1CC[C@H](C)[C@@H]2CC(=O)C(C)=C2C1", "measured_result": "0.21 µg/mL"}
{"compound": "C=C(C(=O)OCc1cn(Cc2ccccc2F)nn1)[C@@H]1CC[C@H](C)[C@@H]2CC(=O)C(C)=C2C1", "measured_result": "0.91 µg/mL"}
{"compound": "NC(=O)c1ncn([C@@H]2O[C@H](CO)[C@@H](O)[C@H]2O)n1 [RIBAVIRIN]", "measured_result": "3.27 µg/mL"}
{"compound": "C=C(C(=O)OCc1cn(C2C=CCCC2)nn1)[C@@H]1CC[C@H](C)[C@@H]2CC(=O)C(C)=C2C1 (stereo not given in full)", "measured_result": "3.28 µg/mL"}

----------
assay: Selectivity index, ratio of TC50 for MDCK cells to IC50 for Influenza A virus A/hanfang/359/95(H3N2); format: toxicity, cell-based; details: dog, read-out: Selectivity Index

{"smiles_text": "CCOC(=O)C1=C[C@@H](OC(CC)CC)[C@H](NC(C)=O)[C@@H](N)C1", "comparison_operator": "=", "selectivity ratio": 1240}
{"smiles_text": "C=C(C(=O)OCc1cn(C2CCCCC2)nn1)[C@@H]1CC[C@H](C)[C@@H]2CC(=O)C(C)=C2C1", "comparison_operator": "≥", "selectivity ratio": 1.73}
{"smiles_text": "C=C(C(=O)OCc1cn(Cc2ccccc2Cl)nn1)[C@@H]1CC[C@H](C)[C@@H]2CC(=O)C(C)=C2C1", "comparison_operator": "=", "selectivity ratio": 3.31}
{"smiles_text": "NC(=O)c1ncn([C@@H]2O[C@H](CO)[C@@H](O)[C@H]2O)n1", "comparison_operator": "=", "selectivity ratio": 213}
{"smiles_text": "C=C(C(=O)O)[C@@H]1CC[C@H](C)[C@@H]2CC(=O)C(C)=C2C1", "comparison_operator": "=", "selectivity ratio": 25.8}
{"smiles_text": "C=C(C(=O)NCc1cn(Cc2ccc(Cl)c(Cl)c2)nn1)[C@@H]1CC[C@H](C)[C@@H]2CC(=O)C(C)=C2C1", "comparison_operator": "=", "selectivity ratio": 4.1}

----------
experiment: Selectivity index, ratio of TC50 for MDCK cells to IC50 for Influenza A virus (A/FM/1/1947(H1N1)); type: toxicity, cell-based; conditions: dog, read-out: Selectivity Index
metric: selectivity ratio

{"molecule": "C=C(C(=O)OCc1cn(Cc2ccc(OC)cc2)nn1)[C@@H]1CC[C@H](C)[C@@H]2CC(=O)C(C)=C2C1", "metric": "selectivity ratio", "measured_result": 2.68}
{"molecule": "C=C(C(=O)NCc1cn(Cc2cccc(OC)c2)nn1)[C@@H]1CC[C@H](C)[C@@H]2CC(=O)C(C)=C2C1", "metric": "selectivity ratio", "measured_result": 5.2}
{"molecule": "C=C(C(=O)NCc1cn(Cc2ccc(C)cc2)nn1)[C@@H]1CC[C@H](C)[C@@H]2CC(=O)C(C)=C2C1", "metric": "selectivity ratio", "measured_result": 5.91}
{"molecule": "C=C(C(=O)OCc1cn(Cc2cccc(C)c2)nn1)[C@@H]1CC[C@H](C)[C@@H]2CC(=O)C(C)=C2C1", "metric": "selectivity ratio", "measured_result": 3.76}
{"molecule": "C=C(C(=O)OCc1cn(C2C=CCCC2)nn1)[C@@H]1CC[C@H](C)[C@@H]2CC(=O)C(C)=C2C1 (stereo partly drawn)", "metric": "selectivity ratio", "measured_result": 8}
{"molecule": "C=C(C(=O)NCc1cn(Cc2ccccc2)nn1)[C@@H]1CC[C@H](C)[C@@H]2CC(=O)C(C)=C2C1", "metric": "selectivity ratio", "measured_result": 5.58}
{"molecule": "C=C(C(=O)OCc1cn(C2CCCCC2)nn1)[C@@H]1CC[C@H](C)[C@@H]2CC(=O)C(C)=C2C1", "metric": "selectivity ratio", "measured_result": 1.73}
{"molecule": "CCOC(=O)C1=C[C@@H](OC(CC)CC)[C@H](NC(C)=O)[C@@H](N)C1", "metric": "selectivity ratio", "measured_result": 448}
